Method Summary: qHTS Screen of the MIPE 4.0 Collection Against Ewings Sarcoma (TC32) (AID 1259256); note: nearly all actives have a fitted effect of over 45% in size
Condition Parameters: TC32 Ewing sarcoma viability, CellTiter-Glo, 48 h; series mostly up to 45.8 µM
Inconclusive results are not listed. Calls of active or inactive are those of the source. Calls come from the whole dose curve; as a rule, active = well fitted inhibition curve with a large enough effect; inconclusive = small, poorly fitted or top-dose-only effect; inactive = no such curve, though single readings can be large or run the other way.
Returns: one label drawn from active, inactive

Q) For CNC(=O)[C@H](CC1=CN=C2C=CCC=C12)NC(=O)[C@@H](CC(=O)NO)CC(C)C , what call appears in the results of this test?
A) inactive

Q) For C[C@H](CCC(=O)O)[C@H]1CC[C@H]2[C@H]3[C@@H](CC[C@]12C)[C@@]1(C)CC[C@@H](O)C[C@H]1C[C@@H]3O , what call appears in the results of this test?
A) inactive

Q) For CCCCCCOC(=O)N=C(N)c1ccc(NCc2nc3cc(C(=O)N(CCC(=O)OCC)c4ccccn4)ccc3n2C)cc1 , what call appears in the results of this test?
A) active

Q) For CC1=C(C(=O)Nc2cc3cn[nH]c3cc2F)C(c2ccc(C(F)(F)F)cc2)CC(=O)N1 (stereo unspecified) , what call appears in the results of this test?
A) inactive

Q) For COc1c(C)cnc(Cn2cnc3c(Cl)nc(N)nc32)c1C , what call appears in the results of this test?
A) active

Q) For Cc1cc(-c2ncc(CC(=O)Nc3ccc(-c4cnccn4)cn3)cc2C)ccn1 , what call appears in the results of this test?
A) active

Q) For CN1CCN(c2cccc(Nc3nc4c(-c5ccc(S(C)(=O)=O)cc5)cccn4n3)c2)CC1 , what call appears in the results of this test?
A) active

Q) For CCC(=O)OCC(=O)[C@@]1(OC(=O)CC)[C@@H](C)C[C@@H]2[C@H]3CCC4=CC(=O)C=C[C@]4(C)[C@@]3(F)[C@@H](O)C[C@@]21C , what call appears in the results of this test?
A) inactive

Q) For CON(C)C(=O)N1N=C(c2cc(F)ccc2F)S[C@]1(CCCN)c1ccccc1 , what call appears in the results of this test?
A) inactive

Q) For CCC(=O)NCC[C@@H]1CCc2ccc3c(c21)CCO3 , what call appears in the results of this test?
A) inactive

Q) For CC(C)c1c(C(=O)Nc2ccccc2)c(-c2ccccc2)c(-c2ccc(F)cc2)n1CC[C@H](O)C[C@@H](O)CC(=O)O , what call appears in the results of this test?
A) active

Q) For COc1ccc2nc3cc(Cl)ccc3c(Nc3cc(CN4CCCC4)c(O)c(CN4CCCC4)c3)c2n1 , what call appears in the results of this test?
A) active

Q) For COc1ccc(Cn2ccc3ccc(C(=O)NO)cc32)cc1 , what call appears in the results of this test?
A) active

Q) For C[C@@H]1O[C@@H](O[C@H]2CC[C@@]3(C)[C@H](CC[C@@H]4[C@H]3C[C@@H](O)[C@]3(C)[C@@H](C5=CC(=O)OC5)CC[C@]43O)C2)C[C@H](O)[C@@H]1O[C@H]1C[C@H](O)[C@H](O[C@H]2C[C@H](O)[C@@H](O)[C@@H](C)O2)[C@H](C)O1 (stereo in doubt) , what call appears in the results of this test?
A) active

Q) For CC(C)(O)CC(=O)NCCn1ccc2ncnc(Nc3ccc(Oc4cccc(C(F)(F)F)c4)c(Cl)c3)c21 , what call appears in the results of this test?
A) active

Q) For NS(=O)(=O)c1ccc(Nc2nc(OCC3CCCCC3)c3[nH]cnc3n2)cc1 , what call appears in the results of this test?
A) active
